system: Alternaria solani; test: In vivo preventive test on Alternaria solani (tomato); conditions: 500 ppm of active ingredient, evaluated 7 days after inoculation
experimental-endpoint: Efficacy (%)
Unit % implied. Number only.

Guide cases for Efficacy, answers given:
# molecule, unit-tag, Efficacy
data = [
    ("CCCCC1CCCCC1NC(=O)c1c(C(F)F)nn(C)c1F (single isomer, unassigned) [Example 330]", "%", 95),
    ("CN(CCCc1ccccc1)C(=O)c1c(C(F)F)nn(C)c1Cl [Example 5]", "%", 80),
    ("CC(C)CCC1CCCC1NC(=O)c1c(C(F)F)nn(C)c1F (centres unmarked) [Example 310]", "%", 100),
    ("Cn1nc(C(F)F)c(C(=O)N(CC2CCCCC2c2ccccc2Cl)C2CC2)c1F (centres unmarked) [Example 241]", "%", 100),
    ("CN(CCCc1ccccc1)C(=O)c1c(C(F)F)nn(C)c1F [Example 6]", "%", 95),
    ("CC(C)CC(C)C1CCCC1NC(=O)c1c(C(F)F)nn(C)c1Cl (single isomer, unassigned) [Example 312]", "%", 95),
    ("CC(CSc1ccc(Cl)cc1Cl)NC(=O)c1c(C(F)F)nn(C)c1Cl (centres unmarked) [Example 192]", "%", 95),
]

We now examine a further molecule.
## Task Name the reported Efficacy value associated with the molecule CC(CCc1c(Cl)cc(Cl)cc1Cl)N(C(=O)c1c(C(F)F)nn(C)c1Cl)C1CC1 (centres unmarked) [Example 214]
## Result 80

###

logP values for the molecules below.
experiment: log P by HPLC on reversed-phase column (EEC Directive 79/831 Annex V.A8); assay type: physicochemical
Output: the number by itself.

# molecule, logP
records = [
    ("Cn1nc(C(F)F)c(C(=O)N(CCOc2c(Cl)cc(Cl)cc2Cl)C2CCCC2)c1Cl", 5.27),
    ("CCCN(CCOc1c(Cl)cc(Cl)cc1Cl)C(=O)c1c(C(F)F)nn(C)c1F", 4.37),
    ("Cn1nc(C(F)F)c(C(=O)NC(C)(C)CCc2cc(Cl)cc(Cl)c2)c1F", 4.41),
]

## Task Field request: logP | item: CC(COc1ccccc1)N(C)C(=O)c1c(C(F)F)nn(C)c1F (stereo not shown)
## Result 2.62

###

Overview of reported logP across a group of compounds:
experiment: log P by HPLC on reversed-phase column (EEC Directive 79/831 Annex V.A8); format: physicochemical
Note: the reply should be a number with no unit written.

Examples with their reported logP follow.
# compound, logP
rows = [
    ("CCCN(CCOc1ccccc1)C(=O)c1c(C(F)F)nn(C)c1F", 3.06),
    ("Cn1nc(C(F)F)c(C(=O)NC(COc2ccc3ccccc3c2)C2CC2)c1Cl (racemic)", 3.94),
    ("CC(CCc1cc(Cl)cc(Cl)c1)NC(=O)c1c(C(F)F)nn(C)c1F (centres unmarked)", 3.83),
    ("Cn1nc(C(F)F)c(C(=O)N(C[Si](C)(C)Cc2ccccc2)C2CC2)c1F", 4.03),
    ("CC1CC(N(C(=S)c2c(C(F)F)nn(C)c2F)C2CC2)CC(C)(C)C1 (centres unmarked)", 4.96),
]

Then this compound:
## Task Consider the compound CN(CCC(=O)Nc1ccc(Cl)c(Cl)c1)C(=O)c1c(C(F)F)nn(C)c1F and give its measured logP.
## Result 2.71
